Reference source: the supplement of paper PMC9170038

# Test system: K4 kissing-loop RNA reporter
# protocol_text: apparent KD of K4 kissing-loop reporter; higher = weaker reporter binding
# stated_conditions: Eterna round: R107; input ligand: tryptophan 2.4 mM
Classification by apparent KD of K4 kissing-loop reporter follows these ranges: zone 1 = under 100 nM, zone 2 = from 100 nM up to 400 nM, zone 3 = 400 nM and over

Use the examples below as a reference point.
GUUUGCCGGUUCCGGAGUGAUGUUCCGGAUACCAGCAACUUCCUUUGCCCUUGGCAGCCGUAGCUAUACCGGAUGGCAGCUUCAG [Arrexean] | zone 1
GGUGCUGUUUGUGCCGCCUUCCUCGUUCCUCGAGGACCGGUACGGCCGCCACUCGAGUGAUGUUUGGGUAGCGAUCCCUGCUAGU [Bdazzled - #13 Exc. Tryptophan A] | zone 3
ACCUAGUAGACAGGAUAUCACGAUGACAGUGAUGUUGUCAUCAUCGAUUUGAGGAAACUCAGAUCGUGAGAAGGGUCUAACGACU [FMN B SS t7a] | zone 2
CGUUUAUAGCAGGAUACCAGUACCGAUAAAGUACGUUAAUAGUAGAGUGAUGUUCUAAAGUACCCUUGGCAGCUUAGAGUGAGUG [ExTheophylB.P] | zone 1

Note: place this sequence into its band. Item: GCCGUAGAUGGAAGGAGCGUGGUUAAUGUAAGUGAUGUUUACGAGGUCAACAAUUGACCGCCACAGGUAGGUCGCCAUCUACGGC
zone 1

Note: place this sequence into its band. Item: GAGUCCUUUGAAGGAUAUAGACGUCCCGAUCACUCAGUUGGCGAGCGAGUGAUGUUCGUUCCUAUACUAGAAGGUCAAAGCCUCC [theeternabot_sameState_KL_FMN_B_32]
zone 2

---

# System: K4 kissing-loop RNA reporter
# protocol_text: apparent KD of K4 kissing-loop reporter; higher = weaker reporter binding
# stated_conditions: Eterna round: R107; input ligand: tryptophan 2.4 mM
Let's look at some sequences and their measured apparent KD of K4 kissing-loop reporter.
// return numeric value only (unit: nM, not printed)

UUAAUUAAGACGGCCGCCACUGAAUUAGAGUGAUGUUCUAAAAUUACUAAAUUAAAUUUAUUCAACAGGACCGGGUCAAUUAUUA [JR_SSTryptoB_Sub009] | 524
GAUUGUGAUGGAAACAUCGCAAUCUCUGAAGGAGCGCGUGAAAACGCAGGUAGGUCGCAGGACGACAAAGACAGUGAUGUUGUCA [Ex Arginine A K4 1] | 380
ACGUGCACCAGUGAUGUUGGAAAAUAUGAAGGAGCGGGUGAAAGCCCAGGUAGGUCGCAUAAUAGCACGAGCCACGAAAGUGGCA | 117
GGGUGAGCGCGAAGGAGCGCCCUGACAGGUUGCUGCCGUGGGCAGUGAUGUUGCUCAGUCCGGCAGGUAGGUCGCGUGCUCACCC | 170
CUGUCAUGGGAUGGGCCAGUGAUGUUGGGCCGAGGACCGGUACGGCCGCCACUCGUAGCACAGUGCGCGCUAGCAUUGUACGUCA [theeternabot_exclusion_KL_Trp_A_35] | 456

# apparent KD of K4 kissing-loop reporter (sequence: UUGUAUAGUGGAAGGAGCGCGUGGGCGCAGUGAUGUUGCGCCCGACAUCACUUCAACUUAACGCAGGUAGGUCGCCAUUGUAAUG [Arginine B (Excl) V5] ) is 101

---

# Tested on: K4 kissing-loop RNA reporter
# protocol_text: apparent KD of K4 kissing-loop reporter; higher = weaker reporter binding
# stated_conditions: Eterna round: R107; input ligand: arginine 13.2 mM
Let's look at some sequences and their measured apparent KD of K4 kissing-loop reporter.
// return numeric value only (unit: nM, not printed)

Look over these answered cases.
AUUCCCACUUAAGGAUAUCAAGGAGUGAUGUUCCAAAUGGUCCACGUCGCGGCUCUCCGGGCACAAUGAGAAGGUAAAGCUGGGU [theeternabot_exclusion_KL_FMN_B_43] | 275
UGAUAGGACAGAAGGAGCGGUAGUGAUGUUACCAAAAGGUUAAGGUGUCAAAAGACACCCUACCAGGUAGGUCGCUGUCCUAUCU | 164
AACCUACGAUCACAAUAGUGAUUGUAGGACUAGGAUAUGCUGAAAAGCAGAAGGAGUGAUGUUCCACUCAUGAAUAACAUGAGAA [FmnAX 4 #OpenEnded #K4Late #CoaxialStacking] | 340
UCUCAUCUCAGAAGGAGCGUGAGAGAAUAUUAGAAAUCGUCGAGUGAUGUUCGACGUCUCUCACAGGUAGGUCGCUGAGACGUCA [Arg B SS t9] | 107
AAAGGCAUAGCCCGAGUGAUGUUCGACGAUACCAGCCUCGAUAGAGGCCCUUGGCAGCGUAAAUGAUCAUGAAGCCAAGGAAUAA [whbob_Ex_Theo_A_th68] | 303

Now turn to the next sequence.
# apparent KD of K4 kissing-loop reporter (sequence: UGUACCGAGUCAGGAUAUCAUAAUAAAUCCAGUGAUGUUGGAAUAACCAGUACAAAGUACUGGCCUUGAGAAGGGACUUGGUACU [FmnBS 3 #SwitchBubble #StaticStem] ) is 146

---

# Test system: K4 kissing-loop RNA reporter;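 further: bound reporter read as fluorescence of individual clusters on recovered sequencing chips by microscopy, with normalized cluster intensities fitted with a binding model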
# protocol_text: apparent KD of K4 kissing-loop reporter; higher = weaker reporter binding
# stated_conditions: Eterna round: R107; input ligand: FMN 200 uM
Let's look at some sequences and their measured apparent KD of K4 kissing-loop reporter.
// return numeric value only (unit: nM, not printed)

Look over these answered cases.
AUUUUUUACAGAAGGAGCGUGUUUUAAUAAUCAUGGUGCUUAGCGAGUGAUGUUCGCUUUACACAGGUAGGUCGCUGUUUAUUUA [JR_Nu_ExcArginiB_Sub030] | 120
GCCGUACGCAUGGAUACCAGUUGCGAAGUGAUGUUUCGGGCGAUCAAAGGAUCGCCCAACAACCCUUGGCAGCCAUGCGUACGGC | 216
UCGUUAAAAGCGGCCGCCACUGCCAGAGCUCUGGAAAAGGCUGGAGUGAUGUUCUGCCUAGUAGACAGGACCGGGCUAUUGGAUU [theeternabot_sameState_KL_Trp_B_29] | 667
UUUUUAUGCAGUGAUGUUGCUAAUAUAACAGAGGAUAUGCAUUAAUGCAGAAGGCUGAAAUACUAUACUUUAAUAAAUUAAAUUU [JR_SSFMNA_Sub014] | 89.9
GCCGUAGAUUGAAGGAGCGGUAUGGGCGUUGGCUGAGUGAUGUUCAGGGAAAGUGGCUUCUACCAGGUAGGUCGCAAUCUACGGC | 164

Now turn to the next sequence.
Result for GCCGUACGCAUGGAUACCAGCAAUAUGCUACGUUGUAGUAGUAUAACCAGUGAUGUUGGAUGCCCUUGGCAGCCAUGCGUACGGC , tested on K4 kissing-loop RNA reporter, apparent KD of K4 kissing-loop reporter: 736

---

Let's look at some sequences and their measured apparent KD of MS2 coat protein.
# Test system: MS2 coat protein
# protocol_text: apparent KD of MS2 coat protein; higher = weaker reporter binding
# stated_conditions: Eterna round: R107; input ligand: theophylline 20 uM
// return numeric value only (unit: nM, not printed)

AAUAAUAGGUGAUCCUGACGAGUGGCAUAACGAGGACCGGUACGGCCGCCACUCGAACAUGAGGAUCACCCAUGUAGCCACUCGA [M'-T'-T-MS2-T'' - Design 5.b] | 327

# apparent KD of MS2 coat protein (sequence: ACGCUGCAUAGGAAAACUAUGUAGCGAAAUCGAGGACCGGUACGGCCGCCACUCGUCCUCAACAUGAGGAUCACCCAUGUAAUAA [Mat - Exclusion - Trytophan A - D8] ) is 23.7

# apparent KD of MS2 coat protein (sequence: AGAAUAUAAUAUAUCAAAGGUAUAACCGAAGGAGCGCCGAAUAAGGCAGGUAGGUCGCGGAAACAUGAGGAUCACCCAUGUCCAU [Arginine A Same State; Euphoria Solution 2] ) is 23.6

# apparent KD of MS2 coat protein (sequence: ACAUGAGGGAUGGAUACCAGCGACAUGAGGAUCACCCAUGUAUGAGGAUCACCCAUGUUAUGCCCUUGGCAGCCACAAACAUGAG [UUYMULLIN] ) is 20

# apparent KD of MS2 coat protein (sequence: UCGCACAUGAGGAUCACCCAUGUACUAGAUACCAGUGACGCGGUGCACCCUUGGCAGCUGGUGCUGAGUGAUGGUUCCCUCGGCA [Exclusion Theophylline A GF8] ) is 137

# apparent KD of MS2 coat protein (sequence: GGAUCAGGAUCGGCCGCCACUGAUAGUGAUCCAACGACAUGAGGAUCACCCAUGUACAUUUUAAUCAGGACCGGGAUCAAGUUCC [Tryp B Ex t7] ) is 189

# apparent KD of MS2 coat protein (sequence: UGGGUAGCAUAGCUUGAUAGCUACACUGAAGGAGCGAGGAUAACCUCAGGUAGGUCGCAGACAUGAGGAUCACCCAUGUAGAUGG [Same State Arginine A GF18] ) is 359

# apparent KD of MS2 coat protein (sequence: UUUUUUAACUGAAGGAGCGUCACAUGAGGAUCACCCAUGUAUUAGAUGAGAAGGAUCUUGUGGCAGGUAGGUCGCAGAGGAAGGG [e-argB-V] ) is 187

# apparent KD of MS2 coat protein (sequence: ACCCAUAAUUGGGCGGGUGGAUUGAGUGAUACCAGUCGUAUACAUGACCCUUGGCAGCACCGACAUGAGGAUCACCCAUGUGCCA [Same State Theophylline A GF23] ) is 38.4
